The origin of these recorded values is paper PMC6278537.

test: Pharmacokinetic study in rats after single oral administration of S. officinalis extract (UHPLC-MS/MS of plasma); format: in vivo, Sprague-Dawley rats; conditions: male, Sprague-Dawley; rat plasma, single oral dose of S. officinalis extract 0.015 g/kg, n = 12, mean ± SD
readout-label: Tmax (h)

QUERY: What Tmax value was documented for this molecule, `C[C@@H]1CC[C@]2(C(=O)O[C@@H]3O[C@H](CO)[C@@H](O)[C@H](O)[C@H]3O)CC[C@]3(C)C(=CC[C@@H]4[C@@]5(C)C[C@@H](O)[C@H](O)C(C)(C)[C@@H]5CC[C@]43C)[C@@H]2[C@]1(C)O` ?
RESULT: 1.58

QUERY: Give its Tmax value. Item: CC1=C2C3=CCC4C5(C)CCC(OC6OCC(O)C(O)C6O)C(C)(C)C5CCC4(C)C3(C)CCC2(C(=O)OC2OC(CO)C(O)C(O)C2O)CCC1C (stereo not drawn)
RESULT: 1.33

QUERY: // query Tmax value for entry C[C@@H]1CC[C@]2(C(=O)O[C@@H]3O[C@H](CO)[C@@H](O)[C@H](O)[C@H]3O)CC[C@]3(C)C(=CC[C@@H]4[C@@]5(C)CC[C@H](O[C@@H]6OC[C@H](O)[C@H](O)[C@H]6O)C(C)(C)[C@@H]5CC[C@]43C)[C@@H]2[C@]1(C)O [I, ziyuglycoside I]
RESULT: 0.92

QUERY: Which Tmax reading was recorded for the molecule CC1CCC2(C(=O)OC3OC(CO)C(O)C(O)C3O)CCC3(C)C(=CCC4C5(C)CCC(O)C(C)(C)C5CCC43C)C2C1(C)O (stereo not drawn) ?
RESULT: 0.83

P: C=C1[C@H]2C3=CC[C@@H]4[C@@]5(C)C[C@@H](O)[C@@H](O)C(C)(C)[C@@H]5CC[C@@]4(C)[C@]3(C)CC[C@@]2(C(=O)O[C@@H]2O[C@H](CO)[C@@H](O)[C@H](O)[C@H]2O)CC[C@H]1C [VI, alpinoside]
Q: CC1CCC2(C(=O)O)CCC3(C)C(=CCC4C5(C)C(O)C(O)C(O)C(C)(C)C5CCC43C)C2C1(C)O (stereo not drawn) [V, 1β-hydroxyeuscaphic acid]
QUERY: Between P and Q , whose measured Tmax reads higher? Please identify the chosen entry by its label.
RESULT: P
(P: 1.17 h, Q: 0.58 h)

###

experiment: Stability of analytes in rat plasma under various storage conditions; format: in vitro ADME; conditions: rat plasma, room temperature 4 h, high QC spiked concentration
readout-label: Stability Short-Term (% RE)

Sample answers from the record:
QUERY: Query (molecule): C[C@@H]1CC[C@]2(C(=O)O[C@@H]3O[C@H](CO)[C@@H](O)[C@H](O)[C@H]3O)CC[C@]3(C)C(=CC[C@@H]4[C@@]5(C)CC[C@H](O[C@@H]6OC[C@H](O)[C@H](O)[C@H]6O)C(C)(C)[C@@H]5CC[C@]43C)[C@@H]2[C@]1(C)O [I, ziyuglycoside I] ; field requested: Stability Short-Term
RESULT: 2.44

QUERY: I'd like to know its Stability Short-Term. The molecule in question is CC1CCC2(C(=O)OC3OC(CO)C(O)C(O)C3O)CCC3(C)C(=CCC4C5(C)CCC(O)C(C)(C)C5CCC43C)C2C1(C)O (stereo not drawn)
RESULT: 2.47

QUERY: Bench note: what Stability Short-Term did CC1CCC2(C(=O)O)CCC3(C)C(=CCC4C5(C)C(O)C(O)C(O)C(C)(C)C5CCC43C)C2C1(C)O (stereo not drawn) [V, 1β-hydroxyeuscaphic acid] show?
RESULT: 2.56

QUERY: Stability Short-Term lookup needed for `C[C@@H]1CC[C@]2(C(=O)O[C@@H]3O[C@H](CO)[C@@H](O)[C@H](O)[C@H]3O)CC[C@]3(C)C(=CC[C@@H]4[C@@]5(C)C[C@@H](O)[C@H](O)C(C)(C)[C@@H]5CC[C@]43C)[C@@H]2[C@]1(C)O` , thanks.
RESULT: 4.55

1: CC1=C2C3=CCC4C5(C)CCC(OC6OCC(O)C(O)C6O)C(C)(C)C5CCC4(C)C3(C)CCC2(C(=O)OC2OC(CO)C(O)C(O)C2O)CCC1C (stereo not drawn)
2: C=C1[C@H]2C3=CC[C@@H]4[C@@]5(C)C[C@@H](O)[C@@H](O)C(C)(C)[C@@H]5CC[C@@]4(C)[C@]3(C)CC[C@@]2(C(=O)O[C@@H]2O[C@H](CO)[C@@H](O)[C@H](O)[C@H]2O)CC[C@H]1C [VI, alpinoside]
QUERY: Pick one: 1 or 2 . Which has the bigger Stability Short-Term number? Give the chosen item's label as your response.
RESULT: 2
(2: 3.26 % RE, 1: −2.42 % RE)

###

assay: Stability of analytes in rat plasma under various storage conditions; type: in vitro ADME; settings: rat plasma, room temperature 4 h, medium QC spiked concentration
readout-label: Stability Short-Term (% RE)

QUERY: Quick one: Stability Short-Term for CC1CCC2(C(=O)OC3OC(CO)C(O)C(O)C3O)CCC3(C)C(=CCC4C5(C)CCC(O)C(C)(C)C5CCC43C)C2C1(C)O (stereo not drawn) ?
RESULT: 4.60

QUERY: Quick check: Stability Short-Term of C=C1[C@H]2C3=CC[C@@H]4[C@@]5(C)C[C@@H](O)[C@@H](O)C(C)(C)[C@@H]5CC[C@@]4(C)[C@]3(C)CC[C@@]2(C(=O)O[C@@H]2O[C@H](CO)[C@@H](O)[C@H](O)[C@H]2O)CC[C@H]1C [VI, alpinoside] ?
RESULT: 2.34

QUERY: # lookup: Stability Short-Term of C[C@@H]1CC[C@]2(C(=O)O[C@@H]3O[C@H](CO)[C@@H](O)[C@H](O)[C@H]3O)CC[C@]3(C)C(=CC[C@@H]4[C@@]5(C)CC[C@H](O[C@@H]6OC[C@H](O)[C@H](O)[C@H]6O)C(C)(C)[C@@H]5CC[C@]43C)[C@@H]2[C@]1(C)O [I, ziyuglycoside I]
RESULT: 6.27

QUERY: Requested field: Stability Short-Term. Item: CC1=C2C3=CCC4C5(C)CCC(OC6OCC(O)C(O)C6O)C(C)(C)C5CCC4(C)C3(C)CCC2(C(=O)OC2OC(CO)C(O)C(O)C2O)CCC1C (stereo not drawn)
RESULT: −7.66

A: CC1CCC2(C(=O)O)CCC3(C)C(=CCC4C5(C)C(O)C(O)C(O)C(C)(C)C5CCC43C)C2C1(C)O (stereo not drawn) [V, 1β-hydroxyeuscaphic acid]
B: C[C@@H]1CC[C@]2(C(=O)O[C@@H]3O[C@H](CO)[C@@H](O)[C@H](O)[C@H]3O)CC[C@]3(C)C(=CC[C@@H]4[C@@]5(C)C[C@@H](O)[C@H](O)C(C)(C)[C@@H]5CC[C@]43C)[C@@H]2[C@]1(C)O
QUERY: I'd appreciate it if you could identify which of A and B has the greater Stability Short-Term. Returns: label corresponding to the selected item.
RESULT: B

###

assay: Stability of analytes in rat plasma under various storage conditions; type: in vitro ADME; settings: rat plasma, three freeze–thaw cycles at −20 °C, low QC spiked concentration
readout-label: Stability Three Freeze-Thaw (% RE)

Sample answers from the record:
QUERY: # get_value(readout='Stability Three Freeze-Thaw', item= CC1CCC2(C(=O)O)CCC3(C)C(=CCC4C5(C)C(O)C(O)C(O)C(C)(C)C5CCC43C)C2C1(C)O (stereo not drawn) [V, 1β-hydroxyeuscaphic acid] )
RESULT: −9.67

QUERY: Stability Three Freeze-Thaw for C[C@@H]1CC[C@]2(C(=O)O[C@@H]3O[C@H](CO)[C@@H](O)[C@H](O)[C@H]3O)CC[C@]3(C)C(=CC[C@@H]4[C@@]5(C)CC[C@H](O[C@@H]6OC[C@H](O)[C@H](O)[C@H]6O)C(C)(C)[C@@H]5CC[C@]43C)[C@@H]2[C@]1(C)O [I, ziyuglycoside I] ?
RESULT: 6.07

A: C=C1[C@H]2C3=CC[C@@H]4[C@@]5(C)C[C@@H](O)[C@@H](O)C(C)(C)[C@@H]5CC[C@@]4(C)[C@]3(C)CC[C@@]2(C(=O)O[C@@H]2O[C@H](CO)[C@@H](O)[C@H](O)[C@H]2O)CC[C@H]1C [VI, alpinoside]
B: C[C@@H]1CC[C@]2(C(=O)O[C@@H]3O[C@H](CO)[C@@H](O)[C@H](O)[C@H]3O)CC[C@]3(C)C(=CC[C@@H]4[C@@]5(C)C[C@@H](O)[C@H](O)C(C)(C)[C@@H]5CC[C@]43C)[C@@H]2[C@]1(C)O
C: CC1=C2C3=CCC4C5(C)CCC(OC6OCC(O)C(O)C6O)C(C)(C)C5CCC4(C)C3(C)CCC2(C(=O)OC2OC(CO)C(O)C(O)C2O)CCC1C (stereo not drawn)
QUERY: # desc sort on Stability Three Freeze-Thaw across 3 compounds Respond with the label ranking, as requested.
RESULT: B, A, C
